- System: PHF6
- run.description: 3' UTR reporter interaction score (median-centred robust z-score of log2 firefly/Renilla activity); higher = less repression of the 3' UTR reporter
- applied.conditions: HEK293T; 48 h
Can you tell me 3' UTR reporter interaction score for the items I'm about to list?
Answers are plain numbers.

UGGAGAGAAAGGCAGUUC; -0.104

Parameter requested: 3' UTR reporter interaction score. Apply to each item below.
1. UGGGCGUAUCUGUAUGCUA
2. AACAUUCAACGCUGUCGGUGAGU
3. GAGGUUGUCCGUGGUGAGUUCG
4. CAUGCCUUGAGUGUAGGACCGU
5. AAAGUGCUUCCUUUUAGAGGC

A:
[1.09, -0.891, -0.125, 1.76, -0.00693]

Below are 3 sequences. Give each one its 3' UTR reporter interaction score.
1. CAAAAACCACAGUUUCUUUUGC
2. UACAGUAGUCUGCACAUUGGUU
3. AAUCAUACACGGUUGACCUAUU

A:
[0.268, -0.669, -0.4]

###

Assignment: determine reported 3' UTR reporter interaction score for the given sequences.
- Tested on: MYC
- run.description: 3' UTR reporter interaction score (median-centred robust z-score of log2 firefly/Renilla activity); higher = less repression of the 3' UTR reporter
- applied.conditions: HEK293T; 48 h
Answers are plain numbers.

Previously resolved entries follow.
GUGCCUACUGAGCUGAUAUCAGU; 0.239
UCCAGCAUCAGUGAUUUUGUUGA; -0.461
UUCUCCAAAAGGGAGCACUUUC; -0.329
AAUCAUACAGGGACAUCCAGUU; 0.273
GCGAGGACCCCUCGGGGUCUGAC; -0.466
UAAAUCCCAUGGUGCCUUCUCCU; 0.0891

# map each sequence to its 3' UTR reporter interaction score
1. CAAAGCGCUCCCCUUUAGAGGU
2. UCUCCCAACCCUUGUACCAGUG
3. UAGCACCAUCUGAAAUCGGUU

A:
[0.756, 0.62, 0.338]

###

- Tested on: MYB
- run.description: 3' UTR reporter interaction score (median-centred robust z-score of log2 firefly/Renilla activity); higher = less repression of the 3' UTR reporter
- applied.conditions: HEK293T; 48 h
Category | rule: reported 3' UTR reporter interaction score within range, see band 1 (below -0.08), band 2 (-0.08 to below 0.4), band 3 (0.4 or more)

Solved cases (4 shown):
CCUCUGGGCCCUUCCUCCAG; band 2
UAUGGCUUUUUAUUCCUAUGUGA; band 1
UGGAGAGAAAGGCAGUUC; band 3
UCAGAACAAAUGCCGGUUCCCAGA; band 3

Q: // bin(item) where item = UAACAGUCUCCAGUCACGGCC
A: band 1

Q: Kindly identify the class of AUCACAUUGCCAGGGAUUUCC .
A: band 1

Q: Exercise: read the entry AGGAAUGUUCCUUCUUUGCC and state which class it falls under.
A: band 2

Q: For this sequence, which bin applies? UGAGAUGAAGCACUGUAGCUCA
A: band 3

Q: Which class holds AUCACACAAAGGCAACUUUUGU ?
A: band 3

Q: Determine which band this sequence sits in: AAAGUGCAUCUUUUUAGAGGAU
A: band 1

Q: Categorize the following entry: GAGCCAGUUGGACAGGAGC
A: band 2

Q: // return the class label for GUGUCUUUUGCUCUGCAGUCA
A: band 1

###

- Test system: RB1
- run.description: 3' UTR reporter interaction score (median-centred robust z-score of log2 firefly/Renilla activity); higher = less repression of the 3' UTR reporter
- applied.conditions: HEK293T; 48 h
Recorded 3' UTR reporter interaction score determines the label; the label ranges are lower segment = under -0.3, middle segment = from -0.3 up to 0.8, upper segment = 0.8 and over

The examples below pair each entry with its known result.
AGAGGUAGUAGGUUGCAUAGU; middle segment
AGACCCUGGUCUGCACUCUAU; lower segment
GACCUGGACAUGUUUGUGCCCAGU; lower segment
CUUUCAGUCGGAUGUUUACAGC; middle segment

Q: # classify by 3' UTR reporter interaction score band: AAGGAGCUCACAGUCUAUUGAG
A: upper segment

Q: Into which bin does this sequence go? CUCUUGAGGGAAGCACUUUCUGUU
A: lower segment

Q: Would you mind sorting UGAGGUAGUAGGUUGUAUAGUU into the appropriate category?
A: lower segment

###

- System: NOTCH1
- run.description: 3' UTR reporter interaction score (median-centred robust z-score of log2 firefly/Renilla activity); higher = less repression of the 3' UTR reporter
- applied.conditions: HEK293T; 48 h
reported.metric: 3' UTR reporter interaction score
One number for each entry.

See these solved cases before continuing.
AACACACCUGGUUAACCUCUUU; -1.72
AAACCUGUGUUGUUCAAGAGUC; 0.0529
CACGCUCAUGCACACACCCAC; 0.398

Give one value of 3' UTR reporter interaction score per listed sequence.
1. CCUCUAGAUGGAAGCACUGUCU
2. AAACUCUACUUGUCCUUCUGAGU
3. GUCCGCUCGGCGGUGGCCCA
4. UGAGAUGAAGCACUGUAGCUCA

A:
[0.00559, 0.753, 0.197, 0.298]

###

- System: TP53
- run.description: 3' UTR reporter interaction score (median-centred robust z-score of log2 firefly/Renilla activity); higher = less repression of the 3' UTR reporter
- applied.conditions: HEK293T; 48 h
Give measured 3' UTR reporter interaction score for each item. Keep answers brief.
Answers are plain numbers.

Take each entry in turn and give its 3' UTR reporter interaction score.
1. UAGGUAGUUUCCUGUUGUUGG
2. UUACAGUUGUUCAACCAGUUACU
3. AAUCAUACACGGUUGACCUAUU
4. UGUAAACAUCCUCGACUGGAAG
5. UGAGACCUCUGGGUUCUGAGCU
6. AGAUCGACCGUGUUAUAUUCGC
7. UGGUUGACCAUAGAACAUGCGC
8. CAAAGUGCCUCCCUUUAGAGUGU

A:
1: 0.913; 2: 0.131; 3: -0.0204; 4: -0.35; 5: -1.24; 6: -2.1; 7: -0.14; 8: 0.418

Please report 3' UTR reporter interaction score for every entry that follows.
1. UUCACAGGGAGGUGUCAUUUAU
2. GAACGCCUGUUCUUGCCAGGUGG
3. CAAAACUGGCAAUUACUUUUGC
4. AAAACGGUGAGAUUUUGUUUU

A:
1. 0.0668
2. -0.416
3. 0.751
4. -0.39

###

- Tested on: BRCA2
- run.description: 3' UTR reporter interaction score (median-centred robust z-score of log2 firefly/Renilla activity); higher = less repression of the 3' UTR reporter
- applied.conditions: HEK293T; 48 h
Classification by 3' UTR reporter interaction score | ranges: lower range = under -0.4, middle range = from -0.4 up to 0.04, upper range = 0.04 and over

# count of solved cases: 5
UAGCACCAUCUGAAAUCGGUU; upper range
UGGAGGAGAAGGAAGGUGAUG; lower range
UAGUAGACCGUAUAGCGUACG; middle range
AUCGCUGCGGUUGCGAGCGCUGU; lower range
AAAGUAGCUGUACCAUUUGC; middle range

Q: Field: class (3' UTR reporter interaction score) — entry: GUGCAUUGUAGUUGCAUUG
A: middle range

Q: Class? Entry: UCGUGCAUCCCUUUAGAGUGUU
A: upper range

Q: Field: class (3' UTR reporter interaction score) — entry: AUUACAUGGCCAAUCUC
A: middle range

Q: Determine which band this sequence sits in: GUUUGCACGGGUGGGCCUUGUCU
A: upper range

Q: Which bin, given its 3' UTR reporter interaction score, does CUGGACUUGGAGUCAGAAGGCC occupy?
A: lower range

###

- System: FBXW7
- run.description: 3' UTR reporter interaction score (median-centred robust z-score of log2 firefly/Renilla activity); higher = less repression of the 3' UTR reporter
- applied.conditions: HEK293T; 48 h
I'd be grateful if you could share measured 3' UTR reporter interaction score for these entries.
Numbers only.

Known results for sequences:
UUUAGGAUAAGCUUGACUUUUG; 1.12
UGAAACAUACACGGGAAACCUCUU; 1.59
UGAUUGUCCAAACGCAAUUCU; -0.0252
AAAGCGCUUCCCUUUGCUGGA; 0.199
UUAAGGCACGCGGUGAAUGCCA; 0.904

List the reported 3' UTR reporter interaction score of each sequence below.
1. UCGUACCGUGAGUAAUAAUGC
2. GGGCGCCUGUGAUCCCAAC
3. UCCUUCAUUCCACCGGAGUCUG
4. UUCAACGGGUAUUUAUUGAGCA

A:
[-0.162, 0.114, -0.512, 0.647]

Q: Requested read-out 3' UTR reporter interaction score, target or system FBXW7, entry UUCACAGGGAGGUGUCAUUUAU
A: -3.1

This collection of values is drawn from the supplement of paper PMC5844555.
